# METHOD_DESCRIPTION: Pharmacokinetic study of dalbavancin components in rat plasma after IV dalbavancin hydrochloride (UHPLC-MS/MS)
# EXPERIMENTAL_SETUP: both, Sprague-Dawley, rat, iv, 40 mg/kg, T1/2, D1, single-dose group, SD rats, IV 40 mg/kg dalbavancin hydrochloride, mean ± SD, n = 10
ATTRIBUTE_MEASURED: half-life (h)
Enter your answer as a number in h; do not include the unit.

Dear colleague, I am looking for the recorded half-life of the following molecule: "CCCCCCCCCCCC(=O)N[C@H]1[C@H](Oc2c3cc4cc2Oc2ccc(cc2Cl)[C@@H](O)[C@@H]2NC(=O)[C@H](NC(=O)[C@@H]4NC(=O)[C@H]4NC(=O)[C@@H](Cc5ccc(cc5)O3)NC(=O)[C@H](NC)c3ccc(O)c(c3)Oc3cc(O)c(Cl)c4c3)c3ccc(O)c(c3)-c3c(O[C@H]4O[C@H](CO)[C@@H](O)[C@H](O)[C@@H]4O)cc(O)cc3[C@@H](C(=O)NCCCN(C)C)NC2=O)O[C@H](C(=O)O)[C@@H](O)[C@@H]1O"
29.1
